The following compounds have recorded IC50 on Glycogen synthase kinase-3 beta (Homo sapiens, UniProt P49841).
Sequence (P49841 whole entry): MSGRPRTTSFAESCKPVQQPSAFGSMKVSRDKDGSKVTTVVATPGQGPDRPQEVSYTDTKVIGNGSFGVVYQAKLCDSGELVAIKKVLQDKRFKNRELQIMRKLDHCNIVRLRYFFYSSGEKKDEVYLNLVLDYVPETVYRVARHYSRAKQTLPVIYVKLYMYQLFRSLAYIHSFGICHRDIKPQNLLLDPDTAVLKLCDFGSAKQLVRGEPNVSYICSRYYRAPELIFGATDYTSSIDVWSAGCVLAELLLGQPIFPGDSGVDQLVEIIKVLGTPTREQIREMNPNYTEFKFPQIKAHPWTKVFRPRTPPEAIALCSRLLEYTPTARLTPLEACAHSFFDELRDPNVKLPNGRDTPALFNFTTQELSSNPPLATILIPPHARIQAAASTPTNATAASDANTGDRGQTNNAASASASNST

Field: example entries. Status: answers known.
CCC1(c2cccc(-c3c(C)nnn3C)c2)C2=C(N=NC2)NC2=C1C(=O)C(C)(C)C2 (stereo not drawn) [US20250313563, Compound 950815]
1 to 5 µM
CC[C@@]1(c2cccc(C(F)(F)F)c2)C2=C(N=NC2)NC2=C1C(=O)N(C)C2 [US20250313563, Compound 945368]
> 5 µM

In the following, a different compound is considered.
Fill in: IC50 of CC[C@@]1(c2cccc(-c3cnn(C(F)F)c3)c2)C2=CN=NC2NC2=C1C(=O)NC(C)(C)C2 (stereo partly drawn) [US20250313563, Compound 950254] is ___
1 to 5 µM

====

pIC50: −log10 of the molar value.
Listed here: molecules with reported pIC50 for Glycogen synthase kinase-3 beta (Homo sapiens).

CC(C)(C)CC1=C2C(N=N1)NC1=C(C(=O)CC(C)(C)C1)[C@@]21CCc2cc(F)ccc21 (stereo partly specified) [US20250313563, Compound 782425]
6.00 to 7.00

Look up pIC50 for this molecule: C[C@@H]1C[C@@]2(CCO1)C1=C(N=NC1)NC1=C2C(=O)CC(C)(C)C1 [US20250313563, Compound 899559]
5.30 to 6.00

Which measured pIC50 value corresponds to CCC1(c2cccc(-c3cnn(C)c3C)c2)C2=C(CC(C)(C)CC2=O)NC2N=NC(C)=C21 (stereo unspecified) [US20250313563, Compound 883993] ?
> 7.00

// lookup pIC50 for CC1(C)CC(=O)C2=C(C1)NC1=C(CN=N1)[C@@]21COC2(CN(C(=O)C3CCC4(CC3)COC4)C2)C1 [US20250313563, Compound 944075]
6.00 to 7.00

What value of pIC50 has been reported for the following molecule? CC[C@]1(c2cccc(S(=O)(=O)C3CC3)c2)C2=CN=NC2NC2=C1C(=O)N(C)C(C)(C)C2 (stereo partly specified) [US20250313563, Compound 949184]
< 5.30

Given the entry CC[C@@]1(c2cccc(-c3cc(C)nn3C)c2)C2=CN=NC2NC2=C1C(=O)NC(C)(C)C2 (stereo partly specified) [US20250313563, Compound 943967] , report its measured pIC50.
< 5.30

====

Values of IC50 reported for Glycogen synthase kinase-3 beta (Homo sapiens, UniProt P49841) appear below.

CC[C@]1(c2cccc(-c3ccnc(N4CCCCC4)c3)c2)C2=CN=NC2NC2=C1C(=O)NC(C)(C)C2 (stereo partly specified)
> 5000 nM
CC[C@@]1(c2cccc(-c3ncnn3C)c2)C2=CN=NC2NC2=C1C(=O)CC(C)(C)C2 (stereo partly specified)
> 5000 nM
CC[C@]1(c2cccc(-c3ccnc(C)c3)c2)C2=CN=NC2NC2=C1C(=O)N[C@]1(CCCOC1)C2 (stereo partly specified)
> 5000 nM
CCC1(c2cccc(-c3ccnc(C)c3C)c2)C2=CN=NC2NC2=C1C(=O)NC(C)(C)C2 (stereo unspecified)
100 to 1000 nM

# returns recorded IC50 (system: Glycogen synthase kinase-3 beta (Homo sapiens, UniProt P49841)) for CC[C@@]1(c2cccc(OC(C)C)c2)C2=C(CC(C)(C)CC2=O)NC2N=NC(C(F)(F)F)=C21 (stereo partly specified)
1000 to 5000 nM

Observed IC50 on Glycogen synthase kinase-3 beta (Homo sapiens, UniProt P49841) for CC[C@]1(c2cccc(-c3ccncc3C)c2)C2=C(CC(C)(C)NC2=O)NC2N=NC(C(F)(F)F)=C21 (stereo partly specified) , please.
< 100 nM

Hi! What's the reported IC50 for CCC1(c2cccc(-c3cc(C)ncc3OC)c2)C2=CN=NC2NC2=C1C(=O)CC(C)(C)C2 (stereo unspecified) on Glycogen synthase kinase-3 beta (Homo sapiens, UniProt P49841)?
100 to 1000 nM

// map CC[C@@]1(c2cccc(-c3ccnn3C)c2)C2=CN=NC2NC2=C1C(=O)NC1(CCS(=O)(=O)CC1)C2 (stereo partly specified) to recorded IC50 (system: Glycogen synthase kinase-3 beta (Homo sapiens, UniProt P49841))
100 to 1000 nM

Reported IC50 for Glycogen synthase kinase-3 beta (Homo sapiens, UniProt P49841), given CCC1(c2cccc(N3CCC[C@@H]3C)c2)C2=CN=NC2NC2=C1C(=O)CC(C)(C)C2 (stereo partly specified) ?
100 to 1000 nM

Lab request: please report IC50 under test system Glycogen synthase kinase-3 beta (Homo sapiens, UniProt P49841) for CC[C@]1(c2cccc(-c3ccncc3F)c2)C2=C(CC(C)(C)CC2=O)NC2N=NC(C(F)(F)F)=C21 (stereo partly specified)
< 100 nM

Which IC50 is reported with Glycogen synthase kinase-3 beta (Homo sapiens, UniProt P49841) for this entry: CC[C@@]1(c2cccc(C(F)(F)F)c2)C2=C(N=NC2)NC2=C1C(=O)N(C)C2(C)C ?
100 to 1000 nM

====

pIC50: −log10 of the molar value.
Heads up, these compounds all have pIC50 values measured for Glycogen synthase kinase-3 alpha (Homo sapiens, UniProt P49840).

For the compound CCn1nccc1-c1cccc([C@]2(CC)C3=CN=NC3NC3=C2C(=O)CC(C)(C)C3)c1 (stereo partly drawn) , what pIC50 is on record?
> 7.00

Looking for the measured pIC50 of CCC1(c2cccc(N(C)c3nccc(C)n3)c2)C2=CN=NC2NC2=C1C(=O)CC(C)(C)C2 (stereo not drawn) , can you help?
> 7.00

For CC[C@@]1(c2cccc(C(F)(F)F)c2)C2=CN=NC2NC2=C1C(=O)N[C@@H](C)C2 (stereo partly drawn) , what is its reported pIC50?
< 5.30

Reported pIC50 for CC[C@@]1(c2cccc(Oc3cncnc3)c2)C2=CN=NC2NC2=C1C(=O)CC(C)(C)C2 (stereo partly drawn) : what is it?
6.00 to 7.00

Fill in: pIC50 of CC[C@@]1(c2cccc(C(F)(F)F)c2)C2=CN=NC2NC2=C1C(=O)C[C@@]1(CCN(C)C1=O)C2 (stereo partly drawn) is ___
> 7.00

====

- TARGET_ENTITY: UniProtKB P49840
pIC50: −log10 of the molar value.
In this section, each of the molecules is paired with its reported pIC50.

Request body: readout pIC50, system UniProtKB P49840, query COc1ccccc1S(=O)(=O)N1CCCC2(CC1)C1=CN=NC1NC1=C2C(=O)CC(C)(C)C1 (stereo unspecified) . Return the value.
> 7.00

Kindly state the measured pIC50 obtained for Cc1cnc2c(S(=O)(=O)N3CCC4(CC3)C3=C(N=NC3)NC3=C4C(=O)CC(C)(C)C3)cccc2c1 with UniProtKB P49840.
> 7.00

====

- TARGET_ENTITY: UniProtKB P49841
MEASUREMENT_KIND: IC50

What IC50 value was documented for this compound, CCC1(c2cccc(N(C)C(=O)CN3CCCC3)c2)C2=CN=NC2NC2=C1C(=O)CC(C)(C)C2 (stereo not drawn) ?
1 to 5 µM

Entry under review: COc1ccc(S(=O)(=O)N2CCC3(CC2)C2=C(N=NC2)NC2=C3C(=O)CC(C)(C)C2)cc1 [US20250313563, Compound 901469] . Reported IC50?
0.1 to 1 µM

Any idea what its IC50 is? The compound is CCC1(c2ccccc2)C2=C(N=NC2)NC2=C1C(=O)C(C)(C)CC2 (stereo not drawn)
1 to 5 µM

Which measured IC50 value corresponds to CC1(C)CC(=O)C2=C(C1)NC1=C(CN=N1)C21COC2(CN(C(=O)C3CCC(F)CC3)C2)C1 (stereo not drawn) ?
0.1 to 1 µM

// returns reported IC50 for input CC1(C)CC(=O)C2=C(C1)NC1=C(CN=N1)C21CCC(c2ccccc2)CC1 (stereo not drawn)
< 0.1 µM

Which IC50 value belongs to CCC1(c2cccc(-c3ccnnc3)c2)C2=CN=NC2NC2=C1C(=O)CC(C)(C)C2 (stereo not drawn) ?
< 0.1 µM

Need IC50, item CC[C@@]1(c2cccc(C(F)(F)F)c2)C2=CN=NC2NC2=C1C(=O)N(c1cn(C)nc1C)CC2 (stereo partly drawn)
1 to 5 µM

Would you kindly share the measured IC50 for CCC1(c2cccc(-c3c(C)cnn3C)c2)C2=CN=NC2NC2=C1C(=O)CC(C)(C)C2 (stereo not drawn) ?
< 0.1 µM

Give its IC50 value. Item: CC[C@]1(c2cccc(C(F)(F)F)c2)C2=CN=NC2NC2=C1C(=O)N(c1cnn(C)c1)CC2 (stereo partly drawn)
0.1 to 1 µM

====

- TARGET_ENTITY: Glycogen synthase kinase-3 alpha (Homo sapiens, UniProt P49840)
- Sequence (P49840 whole entry): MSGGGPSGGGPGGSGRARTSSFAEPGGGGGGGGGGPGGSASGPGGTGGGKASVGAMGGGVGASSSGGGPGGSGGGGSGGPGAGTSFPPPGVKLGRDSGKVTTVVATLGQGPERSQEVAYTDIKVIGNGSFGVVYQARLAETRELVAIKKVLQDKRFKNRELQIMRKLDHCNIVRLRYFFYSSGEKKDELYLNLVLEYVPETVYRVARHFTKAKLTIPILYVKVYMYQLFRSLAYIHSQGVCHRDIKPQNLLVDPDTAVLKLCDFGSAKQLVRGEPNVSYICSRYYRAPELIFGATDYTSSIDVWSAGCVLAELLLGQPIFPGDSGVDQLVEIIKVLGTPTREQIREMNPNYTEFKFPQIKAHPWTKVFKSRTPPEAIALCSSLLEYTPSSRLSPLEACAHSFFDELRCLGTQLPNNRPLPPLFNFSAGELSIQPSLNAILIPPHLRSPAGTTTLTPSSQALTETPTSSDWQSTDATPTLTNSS
pIC50: −log10 of the molar value.
MEASUREMENT_KIND: pIC50

CC[C@@]1(c2cccc(C(F)(F)F)c2)C2=CN=NC2NC2=C1C(=O)N(c1ccn(C)n1)CC2 (some centres undefined) [US20250313563, Compound 949836]
5.30 to 6.00

Give recorded pIC50 with Glycogen synthase kinase-3 alpha (Homo sapiens, UniProt P49840) for the following compound: CCC1(c2cccc(C(F)(F)F)c2)C2=CN=NC2NC2=C1C(=O)NC(c1ccccc1)C2 (centres undefined) [US20250313563, Compound 917284]
6.00 to 7.00

Give recorded pIC50 with Glycogen synthase kinase-3 alpha (Homo sapiens, UniProt P49840) for the following compound: CCC1(c2cccc(S(C)(=O)=O)c2)C2=CN=NC2NC2=C1C(=O)CC(C)(C)C2 (centres undefined) [US20250313563, Compound 819561]
> 7.00

Entry Cc1cccc2c1CC[C@]21C2=C(N=NC2)NC2=C1C(=O)CC(C)(C)C2 [US20250313563, Compound 913137] , system Glycogen synthase kinase-3 alpha (Homo sapiens, UniProt P49840): what pIC50 was measured?
< 5.30

Data provenance is BindingDB's records for patent US20250313563.
